tested on: johnsongrass; assay: Test C pre-/postemergence test; format: in vivo, Sorghum halepense; conditions: Preemergence, 31 g ai/ha; scale 0 to 100 (0 no effect, 100 complete control)
Reported Plant response rating, Johnsongrass maps to class as: low (below 60), medium (60 to below 80), high (80 or more)

# example entries with known answers
CCn1nc(C(F)(F)F)c(CS(=O)(=O)c2cc(C)cc[n+]2[O-])c1OCC(F)(F)F [Compound 64]: low
Cc1cc[n+]([O-])c(S(=O)(=O)Cc2c(C(F)(F)F)nn(C)c2OC(C)C(F)(F)F)c1 (stereo not drawn) [Compound 96]: medium
CC(c1c(C(F)(F)F)nn(CC(F)(F)F)c1Cl)[S+]([O-])c1cccc[n+]1[O-] (stereo not drawn) [Compound 46]: low
CCc1cc[n+]([O-])c([S+]([O-])Cc2c(C(F)(F)F)nn(C)c2OC(F)F)c1 (stereo not drawn) [Compound 101]: medium
Cn1nc(C(F)(F)F)c(C[S+]([O-])c2cccc[n+]2[O-])c1OCC(F)(F)F (racemic) [Compound 28]: high

Request: Determine which band this compound sits in: Cn1nc(C(F)(F)F)c(C[S+]([O-])c2cc(C(F)(F)F)cc[n+]2[O-])c1Cl (racemic) [Compound 34]
Response: high

Request: Lab log: Cn1nc(C(F)(F)F)c(C[S+]([O-])c2ccc(F)c[n+]2[O-])c1OCC(F)(F)F (stereo not drawn) [Compound 67] — assign Plant response rating, Johnsongrass category
Response: medium

Request: Tag the class for Cn1nc(C(F)(F)F)c(C(Cl)S(=O)(=O)c2cccc[n+]2[O-])c1OC(F)F (stereo not drawn) [Compound 51]
Response: medium

====

system: wheat; experiment: Test A pre-/postemergence greenhouse test; format: in vivo, Triticum aestivum; conditions: Preemergence, 125 g ai/ha; 0 to 100 scale, 0 no effect, 100 complete control
Entries annotated with measured Wheat plant response rating

Examples from the recorded data:
Cn1nc(C(F)(F)C(F)(F)F)c(C[S+]([O-])c2cccc[n+]2[O-])c1OCC(F)(F)F (stereo not shown) [Compound 79]: 80
CC(C)c1cc[n+]([O-])c(S(=O)(=O)Cc2c(C(F)(F)F)nn(C)c2OC(F)F)c1 [Compound 110]: 30
Cn1nc(C(F)(F)F)c(C[S+]([O-])c2cc(F)cc[n+]2[O-])c1Cl (racemic) [Compound 42]: 20

--- query ---
Request: Hello, please tell me recorded Wheat plant response rating for this one: CCn1nc(C(F)(F)F)c(C[S+]([O-])c2cccc[n+]2[O-])c1OCC(F)(F)F (racemic) [Compound 65]
Response: 80

====

tested on: dallisgrass; experiment: Test F preemergence test; assay type: in vivo, Paspalum dilatatum; conditions: 62 g ai/ha, Preemergence; scale 0 to 100
Entries whose Dallisgrass plant response rating is below 80 take Criterion met; entries at or above 80 take Criterion not met.

Cc1cc[n+]([O-])c(S(=O)(=O)Cc2c(C(F)(F)F)nn(C)c2Cl)c1: Criterion met
Cn1nc(OC(F)F)c(CS(=O)(=O)c2cccc[n+]2[O-])c1C(F)(F)F: Criterion not met
Cn1nc(C(F)(F)F)c(C[S+]([O-])c2ccc(Cl)c[n+]2[O-])c1OCC(F)(F)F (racemic): Criterion not met
Cc1cc[n+]([O-])c([S+]([O-])Cc2c(C(F)(F)F)nn(C)c2Cl)c1 (racemic): Criterion met

Please examine the following record next.
Request: Is Dallisgrass plant response rating strictly under 80 for the entry Cc1cc[n+]([O-])c(S(=O)(=O)Cc2c(C(F)(F)F)nn(C)c2OC(F)F)c1 ?
Response: Criterion met

====

test system: morningglory; experiment: Test C pre-/postemergence test; format: in vivo, Ipomoea coccinea; conditions: 62 g ai/ha, Preemergence; scale 0 to 100
endpointName: Morningglory plant response rating
Could you respond with only the numeric value?

CCn1nc(C(F)(F)F)c(C[S+]([O-])c2cccc[n+]2[O-])c1OCC(F)(F)F (racemic) [Compound 65]: 0

Request: Give reported Morningglory plant response rating for Cc1cc[n+]([O-])c(S(=O)(=O)Cc2c(C(F)(F)F)nn(C)c2Cl)c1 [Compound 19] (morningglory)
Response: 60

Request: Report Morningglory plant response rating from morningglory testing of CCn1nc(C(F)(F)F)c(C[S+]([O-])c2cc(C)cc[n+]2[O-])c1OCC(F)(F)F (racemic) [Compound 66]
Response: 90

Request: Please tell me the measured Morningglory plant response rating for Cn1nc(C(F)(F)F)c(C[S+]([O-])c2cc(C(C)(C)C)cc[n+]2[O-])c1OC(F)F (racemic) [Compound 24] ; system: morningglory.
Response: 80

====

Overview of recorded Plant response rating, Crabgrass, Large for various compounds
system: large crabgrass; test: Test F preemergence test; format: in vivo, Digitaria sanguinalis; conditions: Preemergence; 16 g ai/ha; scale 0 to 100
In your answer, state the number alone without any accompanying words.

Cn1nc(C(F)(F)F)c(C[S+]([O-])c2cccc[n+]2[O-])c1Cl (stereo not shown) [Compound 8]: 0
Cc1cc[n+]([O-])c([S+]([O-])Cc2c(C(F)(F)F)nn(C)c2OCC(F)(F)F)c1 (racemic) [Compound 30]: 40
Cc1cc[n+]([O-])c([S+]([O-])Cc2c(C(F)(F)F)nn(C)c2Cl)c1 (racemic) [Compound 20]: 10

From here, focus on the item given below.
Request: Provide one value: measured Plant response rating, Crabgrass, Large of Cn1nc(C(F)(F)F)c(C[S+]([O-])c2cccc[n+]2[O-])c1OC(F)F (stereo not shown) [Compound 3]
Response: 20

====

test system: velvetleaf; experiment: Test A pre-/postemergence greenhouse test; format: in vivo, Abutilon theophrasti; details: Preemergence, 125 g ai/ha; 0 to 100 scale, 0 no effect, 100 complete control
endpointName: Velvetleaf plant response rating
Give only the figure.

Reference set (2 entries):
Cn1nc(C(F)(F)F)c(C[S+]([O-])c2cccc[n+]2[O-])c1Cl (stereo not shown) [Compound 8]: 70
Cn1nc(C(F)(F)F)c(C[S+]([O-])c2ccc(Br)c[n+]2[O-])c1OC(F)F (racemic) [Compound 16]: 80

Request: Let me know recorded Velvetleaf plant response rating for Cc1cc[n+]([O-])c(S(=O)(=O)Cc2c(C(F)(F)F)nn(C)c2OC(F)F)c1 [Compound 2] , thanks.
Response: 70

Request: Assign Velvetleaf plant response rating to the following record: Cn1nc(C(F)(F)F)c(C[S+]([O-])c2ccc(F)c[n+]2[O-])c1Cl (stereo not shown) [Compound 54]
Response: 30

====

tested on: Russian thistle; experiment: Test C pre-/postemergence test; assay type: in vivo, Salsola kali; conditions: preemergence, 250 g ai/ha; scale 0 (no effect) to 100 (complete control)
// Russian Thistle plant response rating lookup, one value per entry
Answer as a number with no unit attached.

Below, 2 molecules whose answers are already recorded.
Cn1nc(C(F)(F)F)c(C(Cl)S(=O)(=O)c2cccc[n+]2[O-])c1OCC(F)(F)F (racemic): 60
CCc1cc[n+]([O-])c([S+]([O-])Cc2c(C(F)(F)F)nn(C)c2OC(F)F)c1 (stereo not drawn): 100

# input for lookup
Request: For the molecule Cn1nc(C(F)(F)F)c(C[S+]([O-])c2ccc(F)c[n+]2[O-])c1Cl (stereo not drawn) , report Russian Thistle plant response rating.
Response: 100

====

system: Surinam grass; assay: Test C pre-/postemergence test; assay type: in vivo, Brachiaria decumbens; conditions: 62 g ai/ha, Preemergence; scale 0 to 100
This section presents molecules with their documented Surinam Grass plant response rating values.

Request: Assign Surinam Grass plant response rating to the following record: Cn1nc(C(F)(F)F)c(C[S+]([O-])c2ccc(Cl)c[n+]2[O-])c1OCC(F)(F)F (racemic)
Response: 98

Request: Write down Surinam Grass plant response rating measured for item CCn1nc(C(F)(F)F)c(C[S+]([O-])c2cc(C)cc[n+]2[O-])c1OCC(F)(F)F (racemic)
Response: 100

====

system: crabgrass; assay: Test C pre-/postemergence test; format: in vivo, Digitaria sanguinalis; conditions: Preemergence, 31 g ai/ha; scale 0 to 100 (0 no effect, 100 complete control)
endpointName: Plant response rating, Crabgrass, Large

CCn1nc(C(F)(F)F)c(CS(=O)(=O)c2cccc[n+]2[O-])c1OCC(F)(F)F: 100
Cn1nc(C(F)(F)C(F)(F)F)c(C[S+]([O-])c2ccc(Cl)c[n+]2[O-])c1OCC(F)(F)F (stereo not shown): 95
Cn1nc(C(F)(F)F)c(CS(=O)(=O)c2cc(C(C)(C)C)cc[n+]2[O-])c1OC(F)F: 100

Next, consider the following compound.
Request: Give the measured Plant response rating, Crabgrass, Large for Cn1nc(C(F)(F)F)c(CS(=O)(=O)c2ccc(Cl)c[n+]2[O-])c1OCC(F)(F)F
Response: 85

====

test system: field sandbur; assay: Test G preemergence test; assay type: in vivo, Cenchrus incertus; conditions: 250 g ai/ha, scale 0 to 100
endpointName: Plant response rating, Sandbur
Could you respond with only the numeric value?

Cn1nc(C(F)(F)F)c(C(Cl)S(=O)(=O)c2cccc[n+]2[O-])c1Cl (stereo not shown) [Compound 12]: 100
Cn1nc(C(F)(F)F)c(C[S+]([O-])c2cccc[n+]2[O-])c1OC(F)F (stereo not shown) [Compound 3]: 95
Cc1cc[n+]([O-])c(S(=O)(=O)C(C)c2c(C(F)(F)F)nn(C)c2Cl)c1 (racemic) [Compound 14]: 85

Let's switch to this molecule now.
Request: Give recorded Plant response rating, Sandbur. Cc1cc[n+]([O-])c(S(=O)(=O)Cc2c(C(F)(F)F)nn(C)c2OC(F)F)c1 [Compound 2]
Response: 100
